biological target: biotinylated wild-type menin and MLL-AF9 fusion protein (menin/MLL binding) (Homo sapiens); construct: MLL-AF9-FLAG: HEK293 cells, used as cleared lysate; assay: Assay 1: menin/MLL binding AlphaLISA assay, wild-type menin; details: Table 30; column head does not say wild-type or mutated menin
Sequence (O00255 whole entry, the tested form may be a part): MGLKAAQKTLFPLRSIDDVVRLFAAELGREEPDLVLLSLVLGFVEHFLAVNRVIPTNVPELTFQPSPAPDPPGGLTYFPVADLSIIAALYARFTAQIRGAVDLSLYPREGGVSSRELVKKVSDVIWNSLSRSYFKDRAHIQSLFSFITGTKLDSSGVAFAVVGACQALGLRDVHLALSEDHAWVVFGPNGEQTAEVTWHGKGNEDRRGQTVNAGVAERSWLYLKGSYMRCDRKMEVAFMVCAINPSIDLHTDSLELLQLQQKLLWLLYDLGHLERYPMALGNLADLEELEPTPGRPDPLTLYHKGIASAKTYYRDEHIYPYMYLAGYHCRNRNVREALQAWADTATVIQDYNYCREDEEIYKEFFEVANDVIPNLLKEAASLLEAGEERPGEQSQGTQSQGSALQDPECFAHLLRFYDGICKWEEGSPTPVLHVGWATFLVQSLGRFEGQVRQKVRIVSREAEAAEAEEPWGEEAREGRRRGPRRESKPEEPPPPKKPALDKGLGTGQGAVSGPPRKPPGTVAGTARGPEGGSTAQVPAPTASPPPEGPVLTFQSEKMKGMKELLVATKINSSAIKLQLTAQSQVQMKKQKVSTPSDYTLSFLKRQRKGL
pIC50: −log10 of the molar value.
metric-name: pIC50

compound | test-target | observed-measurement
CC(C)N(C)C(=O)c1cc(F)ccc1Oc1cncnc1N1CCC2(CCN(Cc3ccc4c(c3)[nH]c(=O)n4C)C2)C1 (centres unmarked) | biotinylated wild-type menin and MLL-AF9 fusion protein (menin/MLL binding) (Homo sapiens) | > 7.00
CC(C)N(C(=O)c1cc(F)ccc1Oc1cncnc1N1CCC2(CC(Cc3ccc(F)cc3)N(CCO)C2)C1)C(C)C (single isomer, unassigned) [Example 26B] | biotinylated wild-type menin and MLL-AF9 fusion protein (menin/MLL binding) (Homo sapiens) | > 7.00
N#Cc1ccc(-c2cc(F)ccc2Oc2cncnc2N2CCC3(CCN(Cc4ccc5oc(=O)[nH]c5c4)C3)C2)c(C2CC2)c1 (centres unmarked) | biotinylated wild-type menin and MLL-AF9 fusion protein (menin/MLL binding) (Homo sapiens) | > 7.00
O=c1[nH]c2ccc(CN3CCC4(CCN(c5ncncc5Oc5ccc(F)cc5OCc5ccccc5)C4)C3)cc2[nH]1 (centres unmarked) | biotinylated wild-type menin and MLL-AF9 fusion protein (menin/MLL binding) (Homo sapiens) | > 7.00
CC(C)c1ncncc1-c1cc(F)ccc1Oc1cncnc1N1CC2(CN(C(=O)Cc3ccc(C#N)cc3)C2)C1 | biotinylated wild-type menin and MLL-AF9 fusion protein (menin/MLL binding) (Homo sapiens) | > 7.00
CC(C)C(=O)N(C)c1cc(F)ccc1Oc1cncnc1N1CC2(CN(CC[C@H]3CC[C@H](NC(=O)OC(C)(C)C)CC3)C2)C1 | biotinylated wild-type menin and MLL-AF9 fusion protein (menin/MLL binding) (Homo sapiens) | > 7.00
CC(C)N(C(=O)c1cc(F)ccc1Oc1cncnc1N1CC2(CN(CC[C@H]3CC[C@H](NC(=O)OC(C)(C)C)CC3)C2)C1)C(C)C | biotinylated wild-type menin and MLL-AF9 fusion protein (menin/MLL binding) (Homo sapiens) | > 7.00
CC(C)(O)CCc1cc(F)ccc1Oc1cncnc1N1CCC2(CCN(Cc3ccc4[nH]c(=O)[nH]c4c3)C2)C1 (centres unmarked) | biotinylated wild-type menin and MLL-AF9 fusion protein (menin/MLL binding) (Homo sapiens) | > 7.00
CCN(C(=O)c1cc(F)ccc1Oc1cncnc1N1CCC2(CCN(Cc3ccc4[nH]c(=O)[nH]c4c3)C2)C1)C(C)C (single isomer, unassigned) [Example 2A] | biotinylated wild-type menin and MLL-AF9 fusion protein (menin/MLL binding) (Homo sapiens) | > 7.00
N#Cc1ccc(-c2cc(F)ccc2Oc2cncnc2N2CCC3(CCN(Cc4ccc5c(c4)NC(=O)C5)C3)C2)c(C2CC2)c1 (centres unmarked) | biotinylated wild-type menin and MLL-AF9 fusion protein (menin/MLL binding) (Homo sapiens) | > 7.00
CC(C)n1nccc1-c1cc(F)ccc1Oc1cncnc1N1CCC2(CCN(C(=O)C(N)C3CCCCC3)C2)C1 (single isomer, unassigned) [Example 206B] | biotinylated wild-type menin and MLL-AF9 fusion protein (menin/MLL binding) (Homo sapiens) | 6.00 to 7.00
O=c1[nH]c2ccc(CN3CCC4(CCN(c5ncncc5Oc5ccc(F)cc5OCC5CC5)C4)C3)cc2[nH]1 (centres unmarked) | biotinylated wild-type menin and MLL-AF9 fusion protein (menin/MLL binding) (Homo sapiens) | > 7.00
CCN(C(=O)c1cc(F)ccc1Oc1cncnc1N1CCC2(CCN(Cc3ccc4[nH]c(=O)[nH]c4c3)C2)C1)C(C)C (racemic) [Example 2] | biotinylated wild-type menin and MLL-AF9 fusion protein (menin/MLL binding) (Homo sapiens) | > 7.00
CC(C)N(C(=O)c1cc(F)ccc1Oc1cncnc1N1CC2(CCN(C(=O)Cc3ccc(C#N)cc3)C2)C1)C(C)C | biotinylated wild-type menin and MLL-AF9 fusion protein (menin/MLL binding) (Homo sapiens) | > 7.00
COc1ccc(CC(=O)N2CC3(C2)CN(c2ncncc2Oc2ccc(F)cc2-c2cncnc2C(C)C)C3)cn1 | biotinylated wild-type menin and MLL-AF9 fusion protein (menin/MLL binding) (Homo sapiens) | > 7.00
CC(C)c1ccccc1-c1cc(F)ccc1Oc1cnccc1N1CCC2(CCN(Cc3ccc4[nH]c(=O)[nH]c4c3)C2)C1 (centres unmarked) | biotinylated wild-type menin and MLL-AF9 fusion protein (menin/MLL binding) (Homo sapiens) | > 7.00
CC1(C)C(=O)Nc2cc(CN3CCC4(CCN(c5ncncc5Oc5ccc(F)cc5-c5cccnc5C5CC5)C4)C3)ccc21 (centres unmarked) | biotinylated wild-type menin and MLL-AF9 fusion protein (menin/MLL binding) (Homo sapiens) | > 7.00
CC(C)c1ncncc1-c1cc(F)ccc1Oc1cncnc1N1CC2(CN(CC3CCC(O)CC3)C2)C1 (centres unmarked) | biotinylated wild-type menin and MLL-AF9 fusion protein (menin/MLL binding) (Homo sapiens) | > 7.00
CC(C)c1ncncc1-c1cc(F)ccc1Oc1cncnc1N1CC2(CC(NCC3CCC(C)(C#N)CC3)C2)C1 (centres unmarked) | biotinylated wild-type menin and MLL-AF9 fusion protein (menin/MLL binding) (Homo sapiens) | > 7.00
CC1(C)C(=O)Nc2cc(CN3CCC4(CCN(c5ncncc5Oc5ccc(F)cc5-c5ccc(C#N)cc5C5CC5)C4)C3)ccc21 (centres unmarked) | biotinylated wild-type menin and MLL-AF9 fusion protein (menin/MLL binding) (Homo sapiens) | > 7.00
CCc1ccccc1-c1cc(F)ccc1Nc1cncnc1N1CCC2(CC1)CN(CC(C)(C)O)C2 | biotinylated wild-type menin and MLL-AF9 fusion protein (menin/MLL binding) (Homo sapiens) | > 7.00
CC(C)c1ncncc1-c1cc(F)ccc1Oc1cncnc1N1CCC2(CC(N3CCc4cc(F)ccc4C3)CO2)C1 (centres unmarked) | biotinylated wild-type menin and MLL-AF9 fusion protein (menin/MLL binding) (Homo sapiens) | > 7.00
CC(CO)c1ccccc1-c1cc(F)ccc1Oc1cncnc1N1CCC2(CCN(Cc3ccc4[nH]c(=O)[nH]c4c3)C2)C1 (centres unmarked) | biotinylated wild-type menin and MLL-AF9 fusion protein (menin/MLL binding) (Homo sapiens) | > 7.00
CC(C)C(O)c1cc(F)ccc1Oc1cncnc1N1CCC2(CCN(Cc3ccc4c(c3)NC(=O)C4(C)C)C2)C1 (centres unmarked) | biotinylated wild-type menin and MLL-AF9 fusion protein (menin/MLL binding) (Homo sapiens) | > 7.00
CC(=O)N[C@H]1CC[C@H](CN2CCC3(CCN(c4ncncc4Oc4ccc(F)cc4-c4ccc(C#N)cc4C4CC4)C3)C2)CC1 (some centres unmarked) | biotinylated wild-type menin and MLL-AF9 fusion protein (menin/MLL binding) (Homo sapiens) | > 7.00
CN(C(=O)c1cc(F)ccc1Oc1cncnc1N1CCC2(CCN(Cc3ccc4[nH]c(=O)[nH]c4c3)C2)C1)C(C)(C)C (centres unmarked) | biotinylated wild-type menin and MLL-AF9 fusion protein (menin/MLL binding) (Homo sapiens) | > 7.00

# credit: patent US12312359B2
